This collection of values is drawn from PubChem BioAssay AID248.

- System: L1210 leukemia ip in BDF1 mice, survival T/C
- Test Method Notes: NCI In Vivo Anticancer Drug Screen. Data for tumor model L1210 Leukemia (intraperitoneal) in B6D2F1 (BDF1) mice
- Condition Context: endpoint: mean survival time; dose: 100.0 mg/kg/injection; schedule: Q04DX003 (ip); vehicle: Klucel (hydroxypropylcellulose) (HPC); higher = longer survival
Toxic doses and inconclusive results are not listed.
Measured Quantity: T/C

> print(dat)
                                    compound  measured.quantity    recorded.value
 1  O=[N+]([O-])c1cc(Cl)cc2c1nc(NCCO)c1ccccc12                T/C   97 % of control
 2  CC(=O)OC(=O)c1ccc2c(c1)C(=O)c1ccccc1C2=O                T/C  100 % of control
 3    CC(=O)OC(OC(C)=O)c1ccc([N+](=O)[O-])o1                T/C   96 % of control
 4        COCCNC1=C(F)C(=O)C(NCCOC)=C(F)C1=O                T/C   97 % of control
 5         Oc1ccc2ccccc2c1-c1c(O)ccc2ccccc12                T/C  111 % of control
 6                   Nc1cccc(C(=O)O)c1C(=O)O                T/C  100 % of control
 7  CCC1(O)C2CCCC1CCC2 (configuration not stated)                T/C   97 % of control
 8  C(=C\c1nc2ccccc2nc1/C=C/c1ccc2c(c1)OCO2)/c1ccc2c(c1)OCO2                T/C  102 % of control
 9  CC(C)(C)c1ccc(-c2nnc(-c3ccc(-c4ccccc4)cc3)o2)cc1                T/C   95 % of control
10                   CN1CCN(c2ccc(Cl)cc2)CC1                T/C  106 % of control
11        COc1ccc(Cl)cc1NC(=O)c1ccccc1C(=O)O                T/C  101 % of control
12                         CSc1nccc(=O)[nH]1                T/C  102 % of control

---

- Tested on: L1210 leukemia ip in BDF1 mice, survival T/C
- Test Method Notes: NCI In Vivo Anticancer Drug Screen. Data for tumor model L1210 Leukemia (intraperitoneal) in B6D2F1 (BDF1) mice
- Condition Context: endpoint: mean survival time; dose: 200.0 mg/kg/injection; schedule: Q01DX001 (ip); vehicle: saline; higher = longer survival
Inconclusive results and toxic doses are left out.
Attribute: T/C
Measured Quantity: T/C

> print(dat)
                                   molecule  measured.quantity    recorded.value
1  CN(C)C(C(N)=O)C(=O)c1ccccc1 (configuration not stated)                T/C  104 % of control
2  CC(C)C1SC(=S)NC1=O (configuration not stated)                T/C   95 % of control
3  CC(C)C(Sc1nc(N)nc2nc[nH]c12)C(=O)O (configuration not stated)                T/C   96 % of control
4  COc1ccc(CN2CCCN(Cc3ccc(OC)cc3OC)C2c2ccncc2)c(OC)c1                T/C  105 % of control
5                                 Cc1nccn1C                T/C   90 % of control
6          CC(=O)ONC(NOC(C)=O)N[N+](=O)[O-]                T/C   98 % of control
7   C1=C(c2ccccc2)CCN(C2(c3ccccc3)CCCCC2)C1                T/C   93 % of control
